Data origin, for the record: patent US20170240628A1

studyTarget: T1, recombinant human midkine (huMK) (human, UniProt P21741 21-143)
T1 construct: also called human MK; Human MK
T1 sequence (looked up): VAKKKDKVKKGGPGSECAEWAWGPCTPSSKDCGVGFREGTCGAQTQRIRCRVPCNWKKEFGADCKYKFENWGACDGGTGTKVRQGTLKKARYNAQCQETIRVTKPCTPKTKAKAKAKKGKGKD
assayRemarks: ELISA, plate coated with huMK
Please respond with reported EC50 for every item in the list.
Enter your answer as a number in nM; do not include the unit.

Query string: # query: EC50 of entry IP14-H5L3 (antibody, V domains shown, also called hIP14-H5L3; Hv5 Lv3) VH: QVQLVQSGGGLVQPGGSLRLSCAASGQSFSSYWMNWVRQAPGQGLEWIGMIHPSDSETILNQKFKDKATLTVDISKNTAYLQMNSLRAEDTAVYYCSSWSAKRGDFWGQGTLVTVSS VL: DIVLTQSPATLSLSPGERATLSCRASESISNNLHWYQQKPGQAPRLLIYYASQSISGIPARFSGSGPGTDFTLTISSLEPEDFAVYYCQQSNSWPLTFGGGTKLEIKR
Result string: 0.068

Query string: Record: IP14-H1L2 (antibody, V domains shown, also called Hv1 Lv2) VH: QVQLVQSGAEVKKPGHSVKVSCKASGQSFSSYWMNWVRQAPGQGLEWIGMIHPSDSETILNQKFKDKATLTVDISTSTAYMELSSPRSEDTAVYYCSSWSAKRGDFWGQGTLVTVSS VL: EIVLTQSPATLSLSPGERATLSCRASESISNNLHWYQQKPGQAPRLLIKYASQSISGIPARFSGSGPGTDFTLTISSVEPEDFAVYYCQQSNSWPLTFGGGTKLEIKR
Result string: 0.065

Query string: # repeat for IP14-H3L6 (antibody, V domains shown, also called Hv3 Lv6) VH: QVQLVQSGAEVKKPGASVKVSCKASGQSFSSYWMNWVRQAPGQGLEWMGMIHPSDSETILNQKFKDKVTMTRDTSTSTVYMELSSLRSEDTAVYYCARWSAKRGDFWGQGTLVTVSS VL: EIVLTQSPSTLSASVGDRVNITCRASESISNNLHWYQQKPHKAPKLLIYYASQSISGVPSRFSGSGSGTEFNLTISSVQPDDFATYYCQQSNSWPLTFGQGTKVEIKR
Result string: 5.7
